target: EGFR exon 20 ASV Ins V769_D770 (Ba/F3 cells) (Homo sapiens, UniProt P00533, INS769ASV); construct: expressed in transfected cells; host or cells: Ba/F3 (murine pro-B cells), retroviral transduction, puromycin selection, IL3-independent pool; assay: Inhibitor activity on EGFR-dependent cell growth (CellTiter-Glo, 72 h), Ba/F3 EGFR exon 20 ASV Ins; assay type: cell-based; conditions: read-out: BaF3 ASV IC50
Sequence (P00533 with tags, fused parts or gaps INS769ASV): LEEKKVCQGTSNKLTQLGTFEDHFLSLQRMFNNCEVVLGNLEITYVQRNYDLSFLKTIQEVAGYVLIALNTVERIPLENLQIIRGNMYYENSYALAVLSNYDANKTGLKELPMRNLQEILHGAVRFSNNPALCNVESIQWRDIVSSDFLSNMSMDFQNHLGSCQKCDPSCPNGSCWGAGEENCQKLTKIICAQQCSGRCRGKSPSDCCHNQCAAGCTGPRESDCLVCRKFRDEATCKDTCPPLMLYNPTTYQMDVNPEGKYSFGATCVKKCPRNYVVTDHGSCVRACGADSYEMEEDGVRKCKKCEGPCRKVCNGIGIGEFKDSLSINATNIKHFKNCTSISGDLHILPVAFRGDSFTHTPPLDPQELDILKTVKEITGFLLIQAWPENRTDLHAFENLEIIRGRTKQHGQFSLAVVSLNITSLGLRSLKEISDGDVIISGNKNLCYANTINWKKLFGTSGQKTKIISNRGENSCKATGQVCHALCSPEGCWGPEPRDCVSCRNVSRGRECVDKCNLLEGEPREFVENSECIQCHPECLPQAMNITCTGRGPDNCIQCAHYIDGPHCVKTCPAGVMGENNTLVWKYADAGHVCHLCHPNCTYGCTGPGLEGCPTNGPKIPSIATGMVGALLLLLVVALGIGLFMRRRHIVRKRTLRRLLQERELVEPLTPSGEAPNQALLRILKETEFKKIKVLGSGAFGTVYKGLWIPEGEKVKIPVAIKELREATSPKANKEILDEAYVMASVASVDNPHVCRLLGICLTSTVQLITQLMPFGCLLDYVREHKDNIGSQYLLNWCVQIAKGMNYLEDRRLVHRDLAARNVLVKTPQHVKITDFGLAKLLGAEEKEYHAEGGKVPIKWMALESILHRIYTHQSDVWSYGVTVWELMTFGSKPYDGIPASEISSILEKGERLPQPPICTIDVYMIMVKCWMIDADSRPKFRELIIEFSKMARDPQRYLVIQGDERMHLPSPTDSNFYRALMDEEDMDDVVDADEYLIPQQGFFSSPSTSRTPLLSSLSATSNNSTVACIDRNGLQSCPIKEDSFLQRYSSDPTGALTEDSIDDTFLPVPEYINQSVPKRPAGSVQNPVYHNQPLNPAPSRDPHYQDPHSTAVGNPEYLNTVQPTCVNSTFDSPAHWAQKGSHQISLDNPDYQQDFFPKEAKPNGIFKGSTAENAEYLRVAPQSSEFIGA
Items are presented alongside their recorded IC50.

*Q* Quick one: IC50 of COc1c(Cl)cccc1Nc1c(-c2ccnc3cnc(OC4CC4)nc23)[nH]c2c1C(=O)NCC2 ?
*A* < 100 nM

*Q* What IC50 value was documented for this molecule, COc1c(Cl)cccc1Nc1c(-c2ccncc2F)[nH]c2c1C(=O)NC[C@]21CCN(CC(F)F)C1 ?
*A* < 100 nM

*Q* Fill blank: measured IC50 of the molecule COc1c(Cl)cccc1Nc1c(-c2ccnc(NC[C@H]3COCCO3)n2)[nH]c2c1C(=O)NCC2 is ____.
*A* 100 to 1000 nM

*Q* # IC50 lookup, item COc1c(Cl)cccc1Nc1c(-c2ccnc(N)n2)[nH]c2c1C(=O)N[C@@H](C)C2 [187a]
*A* 100 to 1000 nM

*Q* Given the molecule COc1c(Cl)cccc1Nc1c(-c2ccncc2F)[nH]c2c1C(=O)NCC2CCF (stereo not drawn) , what is its reported IC50?
*A* 100 to 1000 nM

*Q* Report IC50 for COC(=O)N1CC[C@@]2(CNC(=O)c3c2[nH]c(-c2ccncc2F)c3Nc2cccc(Cl)c2OC)C1 please.
*A* > 1000 nM

*Q* Which measured IC50 value corresponds to CNC(=O)N1CC[C@@]2(CNC(=O)c3c2[nH]c(-c2ccncc2F)c3Nc2cccc(Cl)c2OC)C1 ?
*A* > 1000 nM

*Q* Which IC50 is reported for this molecule? COc1c(Cl)cccc1Nc1c(-c2ccnc3ccc(OC[C@H]4CCO4)nc23)[nH]c2c1C(=O)NCC2
*A* < 100 nM

*Q* Can you look up the measured IC50 of CCOc1c(F)cccc1Nc1c(-c2ccnc(N)n2)[nH]c2c1C(=O)NCC2 for me?
*A* > 1000 nM

*Q* What measured IC50 goes with COc1c(Cl)cccc1Nc1c(-c2ccnc(C(F)(F)F)n2)[nH]c2c1C(=O)NCC2 ?
*A* > 1000 nM

----------
molecular target: EGFR exon 20 ASV Ins V769_D770 (Ba/F3 cells) (Homo sapiens, UniProt P00533, INS769ASV); construct: expressed in transfected cells; host or cells: Ba/F3 (murine pro-B cells), retroviral transduction, puromycin selection, IL3-independent pool; assay: Inhibitor activity on EGFR-dependent cell growth (CellTiter-Glo, 72 h), Ba/F3 EGFR exon 20 ASV Ins; assay type: cell-based; conditions: read-out: BaF3 ASV IC50
Result Type: IC50

As a guide, the following entries are already answered.
Compound: C=CC(=O)NCC[C@@H]1CNC(=O)c2c1[nH]c(-c1ccnc(C)n1)c2Nc1cccc(Cl)c1OC
System Under Test: EGFR exon 20 ASV Ins V769_D770 (Ba/F3 cells) (Homo sapiens, UniProt P00533, INS769ASV)
IC50: < 100 nM
//
Compound: COc1c(Cl)cccc1Nc1c(-c2ccncc2F)[nH]c2c1C(=O)NCC2CC1CCO1 (single isomer, unassigned) [Compound 784]
System Under Test: EGFR exon 20 ASV Ins V769_D770 (Ba/F3 cells) (Homo sapiens, UniProt P00533, INS769ASV)
IC50: 100 to 1000 nM
//
Compound: CNC(=O)N1CC[C@]2(CNC(=O)c3c2[nH]c(-c2ccncc2F)c3Nc2cccc(Cl)c2OC)C1
System Under Test: EGFR exon 20 ASV Ins V769_D770 (Ba/F3 cells) (Homo sapiens, UniProt P00533, INS769ASV)
IC50: > 1000 nM

*Q* Item COc1c(Cl)cccc1Nc1c(-c2ccnc3ccc(OCC(F)F)nc23)[nH]c2c1C(=O)NCC2 with EGFR exon 20 ASV Ins V769_D770 (Ba/F3 cells) (Homo sapiens, UniProt P00533, INS769ASV) - IC50?
*A* < 100 nM

*Q* GET /values?readout=IC50&system=EGFR exon 20 ASV Ins V769_D770 (Ba/F3 cells) (Homo sapiens, UniProt P00533, INS769ASV)&item= COc1c(F)cccc1Nc1c(-c2ccnc(C)n2)[nH]c2c1C(=O)NCC2C[C@@H]1COCCO1 (single isomer, unassigned) [Compound 605]
*A* 100 to 1000 nM

*Q* I'm curious: which IC50 was measured for COc1c(Cl)cccc1Nc1c(-c2ccnc3[nH]c(=O)c(OC)nc23)[nH]c2c1C(=O)NCC2 tested on EGFR exon 20 ASV Ins V769_D770 (Ba/F3 cells) (Homo sapiens, UniProt P00533, INS769ASV)?
*A* 100 to 1000 nM

*Q* Reported IC50 for EGFR exon 20 ASV Ins V769_D770 (Ba/F3 cells) (Homo sapiens, UniProt P00533, INS769ASV), given COc1c(F)cccc1Nc1c(-c2ccnc3c(N)noc23)[nH]c2c1C(=O)NCC2 ?
*A* 100 to 1000 nM

*Q* Please state recorded IC50 (tested on EGFR exon 20 ASV Ins V769_D770 (Ba/F3 cells) (Homo sapiens, UniProt P00533, INS769ASV)) of Nc1nccc(-c2[nH]c3c(c2Nc2cccc(C(F)(F)F)c2)C(=O)NCC3)n1
*A* > 1000 nM
